Collected IC50 values appear next to each entry.
Test system: Plasmodium falciparum TM91C235
Test: In vitro antimalarial [3H]-hypoxanthine incorporation assay, TM91C235
Assay type: cell-based
Settings: Plasmodium falciparum; P. falciparum TM91C235 (multiple drug resistant isolate), 72 hours exposure
observable: IC50 (µg/mL)

[
  {
    "compound": "CC[C@H]1OC(=O)[C@H](C)[C@@H](O[C@H]2C[C@@](C)(OC)[C@@H](O)[C@H](C)O2)[C@H](C)[C@@H](O[C@@H]2O[C@H](C)C[C@H](N(C)C)[C@H]2O)[C@](C)(O)C[C@@H](C)CN(CCCNC(=S)NC2CC3C=CC2C3)[C@H](C)[C@@H](O)[C@]1(C)O.O=CO (some centres unmarked) [Example 151]",
    "val": 0.181
  },
  {
    "compound": "CC[C@H]1OC(=O)[C@H](C)[C@@H](O[C@H]2C[C@@](C)(OC)[C@@H](O)[C@H](C)O2)[C@H](C)[C@@H](O[C@@H]2O[C@H](C)C[C@H](N(C)C)[C@H]2O)[C@](C)(O)C[C@@H](C)CN(CCCNC(=S)N[C@H]2CCCC[C@@H]2OCc2ccccc2)[C@H](C)[C@@H](O)[C@]1(C)O.O=CO [Example 123]",
    "val": 0.137
  }
]
